- Tested on: K4 kissing-loop RNA reporter
- method.description: apparent KD of K4 kissing-loop reporter; higher = weaker reporter binding
- condition.info: Eterna round: R107; input ligand: theophylline 20 uM
Known apparent KD of K4 kissing-loop reporter of a selection of sequences
Your answer should be a plain number; it is taken to be in nM.

Guide cases for apparent KD of K4 kissing-loop reporter, answers given:
biopolymer.sequence	unit.of.measurement	apparent KD of K4 kissing-loop reporter
AAUAAGGAGUGAUGUUCCAAGUGAUGUUAACGAGGACCGGUACGGCCGCCACUCGAUACGGCCGGAAAGUAAGAUAAACUACAAU [Same State - Tryptophan A (Freestyle 3)]	nM	55.9
UGUAAUGGCUGAGCAGCCGUGGUACGAGAUACCAGUGAUUUCGAUCACCCUUGGCAGCUCGGCGUGAGUGAUGUUCACGCUACAC [Theo A SS t12]	nM	207
AGUGAGUGAUGUUCACUGUACGUGUCUGAAGGAGCGACAUCGAUGUCAGGUAGGUCGCAGACAUGUCAUCUAUGGUGCGUGACCA [Arg A SS t10]	nM	163
AGAGUACGAAAGUACUCCUCUACACACUGCCGAGGACCGGUACGGCCGCCACUCGAGUUGAGUGAUGUUCGACAGUGUGUAGAGA [Omei KL Tryp A SS C v2]	nM	132
UGAGGAGAGGGAAGGAGCGUGAAAGAGAAAGAAUAUAGUGAUGUUAUAUAGAAGAAAGAAUCACAGGUAGGUCGCCCGGAGGAGG [SSArgB.B]	nM	669

Prompt: Which measured apparent KD of K4 kissing-loop reporter value corresponds to AAAAUAAAGCAGUGAUGUUGCUUAUGAGAAGGAGCGCACGAAAGUGCAGGUAGGUCGCUCAGCCAAGUGGACGAAAACGUCCACA [#OpenEnded 10 #K4Early] ?
Response: 144

###

- Tested on: K4 kissing-loop RNA reporter;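 further: bound reporter read as fluorescence of individual clusters on recovered sequencing chips by microscopy, with normalized cluster intensities fitted with a binding model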
- method.description: apparent KD of K4 kissing-loop reporter; higher = weaker reporter binding
- condition.info: Eterna round: R107; input ligand: FMN 200 uM
experimental.readout: apparent KD of K4 kissing-loop reporter (nM)
Your answer should be a plain number; it is taken to be in nM.

Guide cases for apparent KD of K4 kissing-loop reporter, answers given:
biopolymer.sequence	experimental.readout	numeric.readout
GGAGGAGAAUAUGAUACCAGCAGAGAGAGAGAGGAAGUAUAGUGAUGUUAUAUGUGAGAAUGCCCUUGGCAGCAUAACAAGAAGG [whbob_SS_Theo_B_sa88]	apparent KD of K4 kissing-loop reporter	121
AAAUAAAUCAGAGGAUAUUCUUCCCACGUCGAAGUACCGUGCUUGAUGGAGUGAUGUUCGAUCAGAGAAGAAGGCUGAUAAAUAA [Same State FMN B GF 19]	apparent KD of K4 kissing-loop reporter	732
CCGGACACCUCGGAUACCAGCCUGAGUGAUGUUCAAGCUGAACUCUCUUAAUAGGUCACCGGCCCUUGGCAGCCGCAUCCUAAGC [theeternabot_exclusion_KL_Theo_B_46]	apparent KD of K4 kissing-loop reporter	375
GCCGUACGCAUGGAUACCAGCCGACCUGAUGUUAAGCUGGUGCCGUAGUGAUGUUACGAAGGCCCUUGGCAGCCAUGCGUACGGC	apparent KD of K4 kissing-loop reporter	211

Prompt: Which measured apparent KD of K4 kissing-loop reporter value corresponds to CUAUGGAAACAUAGUAGUCGGGAAACCGAUACCAGUAUGGAAACAUACCCUUGGCAGCGGAAUGAUUAAACGGAGUGAUGUUCCG [Theophylline A K4 18] ?
Response: 279
